- assay comment: n-octanol-water partition coefficient, logP of compound at pH 7.4 stirred for 24 hrs followed by overnight incubation by HPLC analysis
- Format: physicochemical
Quick reference: logD at 24 h of the listed items.

Worked cases, logD at 24 h given:
test smiles: Cc1cc(/C=C/C#N)cc(C)c1Nc1ccnc(Nc2ccc(C#N)cc2)n1
logD at 24 h: > 5
//
test smiles: Cc1cc(CCC#N)cc(C)c1Oc1cc(Nc2ccc(C#N)cc2)c(N)cc1C(=O)N(C)C
logD at 24 h: 2.86

Documented logD at 24 h of Cc1cc(CCC#N)cc(C)c1Oc1cc(Nc2ccc(C#N)cc2)c(N)cc1Br : > 5

Just so you know, measured logD at 24 h for Cc1cc(CCC#N)cc(C)c1Oc1cc(Nc2ccc(C#N)cc2)c(N)cc1CN(C)C came out at 2.52

Documented logD at 24 h of CNC(=O)c1cc(N)c(Nc2ccc(C#N)cc2)cc1Oc1c(Br)cc(CCC#N)cc1OC : 3.16

The compound COCc1cc(N)c(Nc2ccc(C#N)cc2)cc1Oc1c(C)cc(CCC#N)cc1C showed logD at 24 h equal to 3.25

The compound listed as COC(=O)c1cc(N)c(Nc2ccc(C#N)cc2)cc1Oc1c(Br)cc(CCC#N)cc1OC shows logD at 24 h equal to 2.85

Lab note: measured logD at 24 h of CCNC(=O)c1cc(N)c(Nc2ccc(C#N)cc2)cc1Oc1c(C)cc(CCC#N)cc1C was 3.63

For this compound ( Cc1cc(CCC#N)cc(C)c1Oc1cc(Nc2ccc(C#N)cc2)c(N)cc1C(=O)NC1CC1 ), measured logD at 24 h is 2.61

Reported logD at 24 h ( Cc1cc(CCC#N)cc(C)c1Oc1cc(Nc2ccc(C#N)cc2)c(N)cc1COC(=O)C1CC1 ) = 2.51

So, CC(=O)OCc1cc(N)c(Nc2ccc(C#N)cc2)cc1Oc1c(C)cc(CCC#N)cc1C ? Its logD at 24 h was 2.84

For this compound ( Cc1cc(CCC#N)cc(C)c1Oc1cc(Nc2ccc(C#N)cc2)c(N)cc1CNC1CC1 ), measured logD at 24 h is 3.69
